# System: ERBB3
# test parameters: concentration: 1 μM, replicates: in singlicate; n = 1;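 also: KINOMEscan kinase panel screen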
measured endpoint: %Inh (%)
Field format: number, assumed %, no unit text.

In: Requested field: %Inh. Item: O=C(Nc1ccccc1)Nc1cccc(Oc2ccc3nccn3n2)c1
Out: 53

In: Now consider CSc1nn2c(=O)cc(N3CCOCC3)nc2n1Cc1cccc(C(F)(F)F)c1C .
Out: 0

In: Now consider COc1ccccc1CNC(=O)c1cc(C(=O)c2ccccc2C)c[nH]1 .
Out: 0

----------
# Test system: PIM3
# test parameters: concentration: 1 μM, replicates: in singlicate; n = 1
Overview of reported %Inh across a group of molecules:
Please don't drop the unit; write it after the number.

Below, 2 molecules whose answers are already recorded.
INSERT INTO measurements (molecule, result) VALUES
  ('Fc1cc(Cl)ccc1Nc1ccnc2cc(I)ccc12', '6%'),
  ('NC(=O)c1nnc2ccccc2c1N', '0%');

In: Find %Inh (PIM3) for the entry CCCc1ccc(S(=O)(=O)NC2CCN(c3ccnc(Nc4ccc(F)cc4)n3)C2)cc1 (stereo not drawn)
Out: 0%

In: Now consider COc1cc(Nc2nccc(N3CCC(NC(=O)Nc4cc(C)ccc4C)C3)n2)cc(OC)c1OC (stereo not drawn) .
Out: 0%

In: Now consider Cc1ccc(NC(=O)Nc2cc(C(C)(C)C)nn2-c2ccccc2)cc1 .
Out: 0%

In: Now consider Fc1cc(Cl)ccc1Nc1ccnc2cc(-c3ccc(CN4CCCCC4)o3)ccc12 .
Out: 0%

----------
# Test system: CSNK1G1
# test parameters: concentration: 1 μM, replicates: in singlicate; n = 1
measured endpoint: %Inh (%)
Field format: number, assumed %, no unit text.

Below, 3 compounds whose answers are already recorded.
INSERT INTO results (compound, experimental_system, measured_endpoint, numeric_value) VALUES
  ('Cc1cc(NCC(c2ccccc2)c2ccccc2)nc(NCc2ccc(C(F)(F)F)cc2)n1', 'CSNK1G1', '%Inh', 0),
  ('Cc1cccc(-c2nc(Nc3cccc(C(N)=O)c3)c3ccccc3n2)n1', 'CSNK1G1', '%Inh', 0),
  ('Cn1ccc2ncnc(Oc3ccc(Nc4nc5ccccc5[nH]4)cc3)c21', 'CSNK1G1', '%Inh', 0);

In: Find %Inh (CSNK1G1) for the entry Cc1cccc(-c2nc(C)cc(Nc3ccncc3)n2)n1
Out: 13

In: Now consider CC1=C(C(=O)Nc2cc3cn[nH]c3cc2F)C(c2ccc(C(F)(F)F)cc2)CC(=O)N1 (stereo not drawn) .
Out: 7

In: Now consider Clc1cc(Cl)cc(Nc2ccnc(Nc3cc(Cl)cc(Cl)c3)n2)c1 .
Out: 22

In: Now consider COc1ccc(Nc2nccc(-c3cccc(NC(=O)c4cc5cc(F)ccc5[nH]4)c3)n2)cc1 .
Out: 13

In: Now consider Fc1cc(Cl)ccc1Nc1ccnc2cc(-c3ccc(CN4CCCCC4)o3)ccc12 .
Out: 11

In: Now consider COc1ccccc1CNC(=O)c1cc(C(=O)c2ccccc2C)c[nH]1 .
Out: 15

In: Now consider Cc1cc(N2Cc3ccccc3C2)nc(Nc2ccc(S(=O)(=O)N3CCOCC3)cc2)n1.Cl .
Out: 0

In: Now consider Fc1cccc(COc2nnc(-c3ccc4c(c3)CCO4)o2)c1 .
Out: 10

In: Now consider COc1cc2ncnc(Nc3ccc4nc(-c5ccccc5)[nH]c4c3)c2cc1OC.Cl .
Out: 15

In: Now consider Cl.c1ccc(-c2n[nH]cc2-c2ccnc(-c3ccc(CN4CCOCC4)cc3)c2)nc1 .
Out: 16

In: Now consider O=c1cc(N2CCOCC2)nc2n(Cc3cccc(Cl)c3Cl)ccn12 .
Out: 10
